# System: RARa:RXR (NR concentration 270 nM, RXRa partner concentration 90 nM)
# assay-info: PBM binding z-score (relative to random genomic background probes); higher = stronger binding; sequences stand for … in GC…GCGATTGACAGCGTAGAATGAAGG
quantity-kind: PBM binding z-score

Some solved cases for reference:
chain=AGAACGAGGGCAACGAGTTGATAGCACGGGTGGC quantity_kind="PBM binding z-score" observed=0.217
chain=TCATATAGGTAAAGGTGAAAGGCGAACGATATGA quantity_kind="PBM binding z-score" observed=1.81
chain=TCATAGAGGTAAAGGTGAAAGTCGAACGATATGA quantity_kind="PBM binding z-score" observed=2.03
chain=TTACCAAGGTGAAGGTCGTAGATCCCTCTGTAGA quantity_kind="PBM binding z-score" observed=1.4

INPUT: Please supply the value of reported PBM binding z-score for the item TCTTGTAGCTCAAAGGTTAAGAAAGCCGAAGCCT
OUTPUT: 1.83

INPUT: Please supply the value of reported PBM binding z-score for the item TTACCCAGGTGAGCTGAGGTCGTTGATCCAACTC
OUTPUT: 1.55

INPUT: Please supply the value of reported PBM binding z-score for the item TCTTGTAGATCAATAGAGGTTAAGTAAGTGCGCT
OUTPUT: 2

INPUT: Please supply the value of reported PBM binding z-score for the item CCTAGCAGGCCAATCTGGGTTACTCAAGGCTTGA
OUTPUT: -0.308

INPUT: Please supply the value of reported PBM binding z-score for the item CTACCAAGGTGAACAAGGTCGTCGATTACTATTC
OUTPUT: 2.65

INPUT: Please supply the value of reported PBM binding z-score for the item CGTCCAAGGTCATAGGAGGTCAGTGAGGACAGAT
OUTPUT: 6.37

INPUT: Please supply the value of reported PBM binding z-score for the item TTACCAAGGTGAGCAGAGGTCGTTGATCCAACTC
OUTPUT: 2.23

INPUT: Please supply the value of reported PBM binding z-score for the item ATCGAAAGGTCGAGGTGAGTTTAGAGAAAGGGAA
OUTPUT: 3.71
